assay_info: in vivo
measurement_setup: mouse, in vivo, po, mice, 7 days observation, read-out: LD50, acute oral toxicity
measure: LD50 at 168 h

Answered examples (2):
| compound | LD50 at 168 h |
| --- | --- |
| O=C(OCC1CCCCC1)c1ccccc1NC1O[C@H](CO)[C@@H](O[C@@H]2O[C@H](CO)[C@H](O)[C@H](O)[C@H]2O)[C@H](O)[C@H]1O (stereo partly drawn) | > 15000 mg/kg |
| NC(=O)c1cccc(NC2O[C@H](CO)[C@@H](O[C@@H]3O[C@H](CO)[C@@H](O)[C@H](O)[C@H]3O)[C@H](O)[C@H]2O)c1 (stereo partly drawn) [Compound 2, m-aminobenzoic acid amide-N-cellobioside] | > 15000 mg/kg |

Briefly, LD50 at 168 h measured for O=C(Oc1ccccc1)c1ccc(NC2O[C@H](CO)[C@@H](O[C@@H]3O[C@H](CO)[C@@H](O)[C@H](O)[C@H]3O)[C@H](O)[C@H]2O)cc1 (stereo partly drawn) [Compound 9, phenyl p-aminobenzoate-N-cellobioside] : > 15000 mg/kg

----------
System: cotton pellet granuloma
assay_info: Anti-granuloma activity (cotton pellet)
Format: in vivo, rat
measurement_setup: Rattus norvegicus, po, 192 h, 7 days, read-out: I.R. against cotton pellet edema
measure: inhibition in vivo at 1000 mg/kg/day (%)
Write down the numeric answer in % and omit the unit.

Answered examples (8):
| compound | inhibition in vivo at 1000 mg/kg/day, % |
| --- | --- |
| O=C(OCC1CCCCC1)c1ccc(NC2OC[C@@H](O)[C@@H](O)[C@H]2O)cc1 (some centres unmarked) [Compound 23] | 7.3 |
| C[C@@H]1OC(Nc2ccc(C(N)=O)cc2)[C@H](O)[C@H](O)[C@H]1O (stereo partly drawn) [Compound 5, p-aminobenzoic acid amide-N-L-rhamnoside] | 16.8 |
| O=C(OC1CCCCC1)c1ccc(NC2O[C@H](CO)[C@@H](O[C@H]3O[C@H](CO)[C@@H](O[C@H]4O[C@H](CO)[C@@H](O)[C@H](O)[C@H]4O)[C@H](O)[C@H]3O)[C@H](O)[C@H]2O)cc1 (some centres unmarked) [Compound 20] | 21.7 |
| C[C@@H]1OC(Nc2ccc(CC(=O)O)cc2)[C@H](O)[C@H](O)[C@H]1O (stereo partly drawn) [Compound 27, p-aminophenylacetic acid-N-L-rhamnoside] | 23.1 |
| C[C@@H]1OC(Nc2cccc(C(=O)OCc3ccccc3)c2)[C@@H](O)[C@H](O)[C@@H]1O (stereo partly drawn) [Compound 11, benzyl m-aminobenzoate-N-L-fucoside] | 4.4 |
| O=C(Oc1ccccc1)c1ccc(NC2O[C@H](CO)[C@@H](O[C@H]3O[C@H](CO)[C@@H](O[C@H]4O[C@H](CO)[C@@H](O)[C@H](O)[C@H]4O)[C@H](O)[C@H]3O)[C@H](O)[C@H]2O)cc1 (some centres unmarked) [Compound 10, phenyl p-aminobenzoate-N-maltotrioside] | 19.6 |
| NC(=O)c1ccc(NC2OC[C@@H](O)[C@H](O)[C@H]2O)cc1 (stereo partly drawn) [Compound 3, p-aminobenzoic acid amide-N-D-xyloside] | 7 |
| NC(=O)c1cccc(NC2O[C@H](CO)[C@@H](O[C@@H]3O[C@H](CO)[C@@H](O)[C@H](O)[C@H]3O)[C@H](O)[C@H]2O)c1 (some centres unmarked) [Compound 2, m-aminobenzoic acid amide-N-cellobioside] | 6.1 |

Briefly, inhibition in vivo at 1000 mg/kg/day measured for O=C(OCc1ccccc1)c1ccc(NC2O[C@H](CO)[C@@H](O)[C@H](O)[C@H]2O)cc1 (stereo partly drawn) [Compound 14, benzyl p-aminobenzoate-N-D-glucoside] : 23.3
